# TEST_METHOD_NOTES: Selectivity index, ratio of IC50 for cytotoxicity against human WRL68 cells to IC50 for antimalarial activity against Plasmodium falciparum 3D7 infected in erythrocytes
# Format: toxicity, cell-based
# STATED_CONDITIONS: WRL68 cells versus Plasmodium falciparum 3D7 in erythrocytes, read-out: Ratio IC50
One threshold, 2000, splits the recorded selectivity ratio values: lower ones are rule met, equal or higher ones are rule not met.

Problem: Is selectivity ratio strictly under 2000 for the entry CCOC(=O)c1nn(CCNc2ccnc3cc(Cl)ccc23)c2c1C(c1ccccc1OC)C(C#N)=C(N)O2 (stereo unspecified) ?
Result: rule met

Problem: Strictly below 2000 in selectivity ratio? CCOC(=O)c1nn(CCNc2ccnc3cc(Cl)ccc23)c2c1C(c1ccco1)C(C#N)=C(N)O2 (stereo unspecified)
Result: rule met

Problem: Lab note: confirm whether the reported selectivity ratio for this molecule is below 2000, equality not counting. molecule: CCOC(=O)c1nn(CCNc2ccnc3cc(Cl)ccc23)c2c1C(c1cccc([N+](=O)[O-])c1)C(C#N)=C(N)O2 (stereo unspecified)
Result: rule met

Problem: Does the reported selectivity ratio of CCOC(=O)c1nn(CCNc2ccnc3cc(Cl)ccc23)c2c1C(c1cccc(OCC)c1)C(C#N)=C(N)O2 (stereo unspecified) stay below 2000?
Result: rule met

Problem: Answer whether the molecule CCOC(=O)c1nn(CCNc2ccnc3cc(Cl)ccc23)c2c1C(c1ccc(O)cc1)C(C#N)=C(N)O2 (stereo unspecified) has selectivity ratio strictly less than 2000
Result: rule not met

Problem: I wonder whether CCOC(=O)c1nn(CCNc2ccnc3cc(Cl)ccc23)c2c1C(c1cccs1)C(C#N)=C(N)O2 (stereo unspecified) has selectivity ratio below 2000. Can you tell?
Result: rule not met

Problem: Strictly below 2000: is that where selectivity ratio of CCOC(=O)c1nn(CCNc2ccnc3cc(Cl)ccc23)c2c1C(c1ccccn1)C(C#N)=C(N)O2 (stereo unspecified) sits?
Result: rule not met

Problem: Is selectivity ratio strictly under 2000 for the entry CCOC(=O)c1nn(CCNc2ccnc3cc(Cl)ccc23)c2c1C(c1ccc(O)c(Br)c1)C(C#N)=C(N)O2 (stereo unspecified) ?
Result: rule not met

Problem: Lab note: confirm whether the reported selectivity ratio for this molecule is below 2000, equality not counting. molecule: CCOC(=O)c1nn(CCNc2ccnc3cc(Cl)ccc23)c2c1C(c1ccc([N+](=O)[O-])cc1)C(C#N)=C(N)O2 (stereo unspecified)
Result: rule met

Problem: Lab log: compare recorded selectivity ratio with 2000; is it strictly lower for CCOC(=O)c1nn(CCNc2ccnc3cc(Cl)ccc23)c2c1C(c1ccc(Cl)cc1)C(C#N)=C(N)O2 (stereo unspecified) ?
Result: rule met

Problem: Answer whether the molecule CCOC(=O)c1nn(CCNc2ccnc3cc(Cl)ccc23)c2c1C(c1ccc(OCC)cc1)C(C#N)=C(N)O2 (stereo unspecified) has selectivity ratio strictly less than 2000
Result: rule met

----------
# Tested on: Plasmodium falciparum
# TEST_METHOD_NOTES: Resistance index, ratio of IC50 for antimalarial activity against chloroquine resistant Plasmodium falciparum K1 infected in erythrocytes to IC50 for antimalarial activity against chloroquine sensitive Plasmodium falciparum 3D7 infected in erythrocytes
# Type: functional
PARAMETER_MEASURED: Ratio IC50
# output: bare number, no unit

Problem: State the recorded Ratio IC50 for this entry: CCOC(=O)c1nn(CCNc2ccnc3cc(Cl)ccc23)c2c1C(c1ccccc1)C(C#N)=C(N)O2 (centres undefined)
Result: 22.39

Problem: Quick one: Ratio IC50 for CCOC(=O)c1nn(CCNc2ccnc3cc(Cl)ccc23)c2c1C(c1cccc(OCC)c1)C(C#N)=C(N)O2 (centres undefined) ?
Result: 0.38

Problem: # input molecule: CCOC(=O)c1nn(CCNc2ccnc3cc(Cl)ccc23)c2c1C(c1ccc(OC)cc1)C(C#N)=C(N)O2 (centres undefined) ; wanted: its Ratio IC50
Result: 12.1

Problem: What value of measured Ratio IC50 is listed for CCOC(=O)c1nn(CCNc2ccnc3cc(Cl)ccc23)c2c1C(c1ccc(OCC)cc1)C(C#N)=C(N)O2 (centres undefined) ?
Result: 3.57

Problem: Look up Ratio IC50 for this molecule: CCOC(=O)c1nn(CCNc2ccnc3cc(Cl)ccc23)c2c1C(c1ccc(O)cc1)C(C#N)=C(N)O2 (centres undefined)
Result: 180.66

Problem: Item under review: CCOC(=O)c1nn(CCNc2ccnc3cc(Cl)ccc23)c2c1C(c1ccccn1)C(C#N)=C(N)O2 (centres undefined) . Reported Ratio IC50?
Result: 1.15

Problem: # get_value(readout='Ratio IC50', item= CCOC(=O)c1nn(CCNc2ccnc3cc(Cl)ccc23)c2c1C(c1cccc([N+](=O)[O-])c1)C(C#N)=C(N)O2 (centres undefined) )
Result: 3.8

Problem: Quick one: Ratio IC50 for CCOC(=O)c1nn(CCNc2ccnc3cc(Cl)ccc23)c2c1C(c1cccs1)C(C#N)=C(N)O2 (centres undefined) ?
Result: 1.62

Problem: Form field: reported Ratio IC50 of CCOC(=O)c1nn(CCNc2ccnc3cc(Cl)ccc23)c2c1C(c1ccc(Br)cc1)C(C#N)=C(N)O2 (centres undefined)
Result: 0.58

Problem: Any idea what its Ratio IC50 is? The molecule is CCOC(=O)c1nn(CCNc2ccnc3cc(Cl)ccc23)c2c1C(c1ccc(O)cc1O)C(C#N)=C(N)O2 (centres undefined)
Result: 13.13

Problem: Return reported Ratio IC50; argument: CCOC(=O)c1nn(CCNc2ccnc3cc(Cl)ccc23)c2c1C(c1cccc(O)c1)C(C#N)=C(N)O2 (centres undefined)
Result: 77.46

Problem: Please report the recorded Ratio IC50 for CCOC(=O)c1nn(CCNc2ccnc3cc(Cl)ccc23)c2c1C(c1ccccc1OC)C(C#N)=C(N)O2 (centres undefined) .
Result: 39.18

Problem: Report Ratio IC50 for CCOC(=O)c1nn(CCNc2ccnc3cc(Cl)ccc23)c2c1C(c1ccco1)C(C#N)=C(N)O2 (centres undefined) please.
Result: 8.34

Problem: Quick check: Ratio IC50 of CCOC(=O)c1nn(CCNc2ccnc3cc(Cl)ccc23)c2c1C(c1c(O)ccc3ccccc13)C(C#N)=C(N)O2 (centres undefined) ?
Result: 0.07

Problem: Which measured Ratio IC50 value corresponds to CCOC(=O)c1nn(CCNc2ccnc3cc(Cl)ccc23)c2c1C(c1ccc(C#N)cc1)C(C#N)=C(N)O2 (centres undefined) ?
Result: 1.92

Problem: # query: Ratio IC50 of entry CCOC(=O)c1nn(CCNc2ccnc3cc(Cl)ccc23)c2c1C(c1ccc(C(=O)O)cc1)C(C#N)=C(N)O2 (centres undefined)
Result: 5.53

Problem: Value lookup for Ratio IC50; key = CCOC(=O)c1nn(CCNc2ccnc3cc(Cl)ccc23)c2c1C(c1ccc(O)c(Br)c1)C(C#N)=C(N)O2 (centres undefined)
Result: 10

Problem: Quick one: Ratio IC50 for CCOC(=O)c1nn(CCNc2ccnc3cc(Cl)ccc23)c2c1C(c1ccc(Cl)cc1)C(C#N)=C(N)O2 (centres undefined) ?
Result: 1.85

Problem: Entry CCOC(=O)c1nn(CCNc2ccnc3cc(Cl)ccc23)c2c1C(c1ccc([N+](=O)[O-])cc1)C(C#N)=C(N)O2 (centres undefined) has what Ratio IC50?
Result: 2.92
